Tested on: Pseudomonas fluorescens HPPD polypeptide (wild-type and mutants)
procedure_details: Coupled HPPD activity assay: turnover and residual turnover in crude HPPD polypeptide extracts with and without Cmpd. 1
Assay type: biochemical
setup_conditions: absence of Cmpd. 1; changes in absorbance (OD) at 320 nm in the coupled assay, 30 min
This listing pairs molecules with measured Turnover.
Enter a number only.

Before answering, review these 3 worked examples.
molecule	quantity_name	observed_measurement
SEQ ID NO:28 (protein, mutant HPPD polypeptide) MADLYENPMGLMGFEFIEFASPTPGTLEPIFEIMGFTKVATHRSKNVHLYRQGEINLILNNEPNSIASYFAAEHGPSVCGMAFRVKDSQKAYNRALELGAQPIHIDTGPMELNLPAIKGIGGAPLYLIDRFGEGSSIYDIDFVYLEGVERNPVGAGLKVIDHLTHNVYRGRMVYWANFYEKLFNFREARYFDIKGEYTGLTSKAMSAPDGMIRIPLNEESSKGAGQIEEFLMQFNGEGIQHVAFLTDDLVKTWDALKKIGMRFLTAPGDEYYEMLEGRLPDHGEPVDQLQARGILLDGSSVEGDKRLLLQIFSETLMGPVFFEFIQRKGDDGFGPHSFKVLFESIERDQVRRGVLTAD	Turnover	0.203
SEQ ID NO:57 (protein, mutant HPPD polypeptide) MADLYENPMGLMGFEFIEFASPTPGTLEPIFEIMGFTKVATHRSKNVHLYRQGEINLILNNEPNSIASYFAAEHGPSVCGMAFRVKDSQKAYNRALELGAQPIHIDTGPMELNLPAIKGIGGAPLYLIDRFGEGSSIYDIDFVYLEGVERNPVGAGLKVIDHLTHNVYRGRMVYWANFYEKLFNFREARYFDIKGEYTGLTSKAMSAPDGMIKIPLNEESSKGAGQIEEFLMQFNGEGIQHVAFLTDDLVKTWDALKKIGMRFMTAPGDEYYEMLEGRLPDHGEPVDQLQARGILLDGSSVEGDKRLLLQIFSEQLMGPVFFEFIQRKGDDGFGPHSFKVLFEQMERDQVRRGVLTAD	Turnover	0.34
SEQ ID NO:9 (protein, mutant HPPD polypeptide) MADLYENPMGLMGFEFIEFASPTPGTLEPIFEIMGFTKVATHRSKNVHLYRQGEINLILNNEPNSIASYFAAEHGPSVCGMAFRVKDSQKAYNRALELGAQPIHIDTGPMELNLPAIKGIGGAPLYLIDRFGEGSSIYDIDFVYLEGVERNPVGAGLKVIDHLTHNVYRGRMVYWANFYEKLFNFREARYFDIKGEYTGLTSKAMSAPDGMIRIPLNEESSKGAGQIEEFLMQFNGEGIQHVAFLTDDLVKTWDALKKIGMRFLTAPGDEYYEMLEGRLPDHGEPVDQLQARGILLDGSSVEGDKRLLLQIFSETLMGPVFFEFIQRKGDDGFGPDSFKVLFESIERDQVRRGVLTAD	Turnover	0.109

## Input Look at this molecule and give its reported Turnover. SEQ ID NO:17 (protein, mutant HPPD polypeptide) MADLYENPMGLMGFEFIEFASPTPGTLEPIFEIMGFTKVATHRSKNVHLYRQGEINLILNNEPNSIASYFAAEHGPSVCGMAFRVKDSQKAYNRALELGAQPIHIDTGPMELNLPAIKGIGGAPLYLIDRFGEGSSIYDIDFVYLEGVERNPVGAGLKVIDHLTHNVYRGRMVYWANFYEKLFNFREARYFDIKGEYTGLTSKAMSAPDGMIRIPLNEESSKGAGQIEEFLMQFNGEGIQHVAFLTDDLVKTWDALKKIGMRFMTAPGDEYYEMLEGRLPDHGEPVDQLQARGILLDGSSVEGDKRLLLQIFSETLMGPVFFEFIQRKGDDGFGPDSFKVLFESMERDQVRRGVLTAD
## Output 0.184

Value source: patent US11371056B2
